Assay: Inhibition of HCV NS3 protease in presence of pH 7.5 HEPES buffer
Parameters: species or system Hepacivirus hominis
pKi: −log10 of the molar value.
assay_endpoint: pKi

Here is how some molecules turned out for pKi.
C=C[C@@H]1C[C@]1(NC(=O)[C@@H]1C[C@@H](Oc2cc(-c3ccccc3)nc3cc(OC)ccc23)CN1C(=O)[C@@H](NC(=O)OC(C)(C)C)C(C)(C)C)c1nnn[nH]1 = 6.67
C=C[C@@H]1C[C@]1(NC(=O)[C@@H]1C[C@@H](Oc2cc(-c3ccccc3)nc3cc(OC)ccc23)CN1C(=O)[C@@H](NC(=O)OC(C)(C)C)C(C)(C)C)C(=O)N[S+]([O-])c1ccc(C)cc1 (stereo not given in full) = 8.05
C=C[C@@H]1C[C@]1(NC(=O)[C@@H]1C[C@@H](Oc2cc(-c3ccccc3)nc3cc(OC)ccc23)CN1C(=O)[C@@H](NC(=O)OC(C)(C)C)C(C)(C)C)C(=O)NS(=O)(=O)C1CC1 = 10.24
C=C[C@@H]1C[C@]1(NC(=O)[C@@H]1C[C@@H](Oc2cc(-c3ccccc3)nc3cc(OC)ccc23)CN1C(=O)[C@@H](NC(=O)OC(C)(C)C)C(C)(C)C)C(=O)NC#N = 8.22
C=C[C@@H]1C[C@]1(NC(=O)[C@@H]1C[C@@H](Oc2cc(-c3ccccc3)nc3cc(OC)ccc23)CN1C(=O)[C@@H](NC(=O)OC(C)(C)C)C(C)(C)C)c1nnc(-c2ccccc2)o1 = 5.66
C=C[C@@H]1C[C@]1(NC(=O)[C@@H]1C[C@@H](Oc2cc(-c3ccccc3)nc3cc(OC)ccc23)CN1C(=O)[C@@H](NC(=O)OC(C)(C)C)C(C)(C)C)C(=O)NS(=O)(=O)c1ccc(C)cc1 = 9.66
C=C[C@@H]1C[C@]1(NC(=O)[C@@H]1C[C@@H](Oc2cc(-c3ccccc3)nc3cc(OC)ccc23)CN1C(=O)[C@@H](NC(=O)OC(C)(C)C)C(C)(C)C)C(=O)NNC(=O)c1ccccc1 = 5.80
C=C[C@@H]1C[C@]1(NC(=O)[C@@H]1C[C@@H](Oc2cc(-c3ccccc3)nc3cc(OC)ccc23)CN1C(=O)[C@@H](NC(=O)OC(C)(C)C)C(C)(C)C)C(=O)NNc1ccccc1 = 6.25

P = C=C[C@@H]1C[C@]1(NC(=O)[C@@H]1C[C@@H](Oc2cc(-c3ccccc3)nc3cc(OC)ccc23)CN1C(=O)[C@@H](NC(=O)OC(C)(C)C)C(C)(C)C)C(=O)O
Q = C=C[C@@H]1C[C@]1(NC(=O)[C@@H]1C[C@@H](Oc2cc(-c3ccccc3)nc3cc(OC)ccc23)CN1C(=O)[C@@H](NC(=O)OC(C)(C)C)C(C)(C)C)C(=O)NO
Query block: Determine, for P and Q , which has the greater value of pKi. Answer by quoting the chosen item's label.
Result block: P
(P: 7.70, Q: 6.37)

====

Experiment: Inhibition of HCV NS3 protease in presence of pH 7.0 buffer
Set-up: species or system Hepacivirus hominis
pKi: −log10 of the molar value.
assay_endpoint: pKi

C=C[C@@H]1C[C@]1(NC(=O)[C@@H]1C[C@@H](Oc2cc(-c3ccccc3)nc3cc(OC)ccc23)CN1C(=O)[C@@H](NC(=O)OC(C)(C)C)C(C)(C)C)C(=O)NNc1ccccc1 = 6.95
C=C[C@@H]1C[C@]1(NC(=O)[C@@H]1C[C@@H](Oc2cc(-c3ccccc3)nc3cc(OC)ccc23)CN1C(=O)[C@@H](NC(=O)OC(C)(C)C)C(C)(C)C)C(=O)Nc1nccs1 = 6.53
C=C[C@@H]1C[C@]1(NC(=O)[C@@H]1C[C@@H](Oc2cc(-c3ccccc3)nc3cc(OC)ccc23)CN1C(=O)[C@@H](NC(=O)OC(C)(C)C)C(C)(C)C)C(=O)O = 9.17
C=C[C@@H]1C[C@]1(NC(=O)[C@@H]1C[C@@H](Oc2cc(-c3ccccc3)nc3cc(OC)ccc23)CN1C(=O)[C@@H](NC(=O)OC(C)(C)C)C(C)(C)C)C(=O)NC#N = 9.29

P = C=C[C@@H]1C[C@]1(NC(=O)[C@@H]1C[C@@H](Oc2cc(-c3ccccc3)nc3cc(OC)ccc23)CN1C(=O)[C@@H](NC(=O)OC(C)(C)C)C(C)(C)C)C(=O)NCC(F)(F)F
Q = C=C[C@@H]1C[C@]1(NC(=O)[C@@H]1C[C@@H](Oc2cc(-c3ccccc3)nc3cc(OC)ccc23)CN1C(=O)[C@@H](NC(=O)OC(C)(C)C)C(C)(C)C)C(=O)NS(=O)(=O)c1ccc(C)cc1
Query block: Lower value for measured pKi? Options: P , Q When you have decided, please share the label of that item.
Result block: P
(P: 6.46, Q: 10.25)

====

Assay: Inhibition of HCV NS3 protease in presence of pH 6.0 buffer
Design: species or system Hepacivirus hominis
pKi: −log10 of the molar value.
assay_endpoint: pKi

Would you please look over these solved cases?
C=C[C@@H]1C[C@]1(NC(=O)[C@@H]1C[C@@H](Oc2cc(-c3ccccc3)nc3cc(OC)ccc23)CN1C(=O)[C@@H](NC(=O)OC(C)(C)C)C(C)(C)C)C(=O)NS(=O)(=O)c1ccc(C)cc1 = 11.22
C=C[C@@H]1C[C@]1(NC(=O)[C@@H]1C[C@@H](Oc2cc(-c3ccccc3)nc3cc(OC)ccc23)CN1C(=O)[C@@H](NC(=O)OC(C)(C)C)C(C)(C)C)C(=O)O = 9.92

A = C=C[C@@H]1C[C@]1(NC(=O)[C@@H]1C[C@@H](Oc2cc(-c3ccccc3)nc3cc(OC)ccc23)CN1C(=O)[C@@H](NC(=O)OC(C)(C)C)C(C)(C)C)C(=O)NNc1ccccc1
B = C=C[C@@H]1C[C@]1(NC(=O)[C@@H]1C[C@@H](Oc2cc(-c3ccccc3)nc3cc(OC)ccc23)CN1C(=O)[C@@H](NC(=O)OC(C)(C)C)C(C)(C)C)C(=O)Nc1nccs1
C = C=C[C@@H]1C[C@]1(NC(=O)[C@@H]1C[C@@H](Oc2cc(-c3ccccc3)nc3cc(OC)ccc23)CN1C(=O)[C@@H](NC(=O)OC(C)(C)C)C(C)(C)C)C(=O)NCC(F)(F)F
D = C=C[C@@H]1C[C@]1(NC(=O)[C@@H]1C[C@@H](Oc2cc(-c3ccccc3)nc3cc(OC)ccc23)CN1C(=O)[C@@H](NC(=O)OC(C)(C)C)C(C)(C)C)C(=O)NC#N
Query block: Ascending by pKi, please: list the molecules accordingly. Please express your ranking as an ordered list of the labels.
Result block: C, A, B, D

====

Test: Inhibition of HCV NS3 protease in presence of pH 7.5 HEPES buffer
Design: species or system Hepacivirus hominis
pKi: −log10 of the molar value.
assay_endpoint: pKi

Solved cases (2 shown):
C=C[C@@H]1C[C@]1(NC(=O)[C@@H]1C[C@@H](Oc2cc(-c3ccccc3)nc3cc(OC)ccc23)CN1C(=O)[C@@H](NC(=O)OC(C)(C)C)C(C)(C)C)C(=O)Nc1nccs1 = 6.09
C=C[C@@H]1C[C@]1(NC(=O)[C@@H]1C[C@@H](Oc2cc(-c3ccccc3)nc3cc(OC)ccc23)CN1C(=O)[C@@H](NC(=O)OC(C)(C)C)C(C)(C)C)C(=O)NNCc1ccccc1 = 5.96

A = C=C[C@@H]1C[C@]1(NC(=O)[C@@H]1C[C@@H](Oc2cc(-c3ccccc3)nc3cc(OC)ccc23)CN1C(=O)[C@@H](NC(=O)OC(C)(C)C)C(C)(C)C)C(=O)NS(=O)(=O)c1ccccc1
B = C=C[C@@H]1C[C@]1(NC(=O)[C@@H]1C[C@@H](Oc2cc(-c3ccccc3)nc3cc(OC)ccc23)CN1C(=O)[C@@H](NC(=O)OC(C)(C)C)C(C)(C)C)C(=O)NNC(=O)Cc1ccccc1
C = C=C[C@@H]1C[C@]1(NC(=O)[C@@H]1C[C@@H](Oc2cc(-c3ccccc3)nc3cc(OC)ccc23)CN1C(=O)[C@@H](NC(=O)OC(C)(C)C)C(C)(C)C)C(=O)NNS(=O)(=O)c1ccccc1
D = C=C[C@@H]1C[C@]1(NC(=O)[C@@H]1C[C@@H](Oc2cc(-c3ccccc3)nc3cc(OC)ccc23)CN1C(=O)[C@@H](NC(=O)OC(C)(C)C)C(C)(C)C)C(=O)NCC(F)(F)F
Query block: Write the entries in order, lowest recorded pKi first. I'd appreciate it if you listed the labels in the requested order.
Result block: D, B, C, A

====

Assay: Inhibition of HCV NS3 protease in presence of pH 8.0 buffer
Design: species or system Hepacivirus hominis
pKi: −log10 of the molar value.
assay_endpoint: pKi

Would you please look over these solved cases?
C=C[C@@H]1C[C@]1(NC(=O)[C@@H]1C[C@@H](Oc2cc(-c3ccccc3)nc3cc(OC)ccc23)CN1C(=O)[C@@H](NC(=O)OC(C)(C)C)C(C)(C)C)C(=O)Nc1nccs1 = 6.46
C=C[C@@H]1C[C@]1(NC(=O)[C@@H]1C[C@@H](Oc2cc(-c3ccccc3)nc3cc(OC)ccc23)CN1C(=O)[C@@H](NC(=O)OC(C)(C)C)C(C)(C)C)C(=O)O = 8.06

P = C=C[C@@H]1C[C@]1(NC(=O)[C@@H]1C[C@@H](Oc2cc(-c3ccccc3)nc3cc(OC)ccc23)CN1C(=O)[C@@H](NC(=O)OC(C)(C)C)C(C)(C)C)C(=O)NNc1ccccc1
Q = C=C[C@@H]1C[C@]1(NC(=O)[C@@H]1C[C@@H](Oc2cc(-c3ccccc3)nc3cc(OC)ccc23)CN1C(=O)[C@@H](NC(=O)OC(C)(C)C)C(C)(C)C)C(=O)NS(=O)(=O)c1ccc(C)cc1
R = C=C[C@@H]1C[C@]1(NC(=O)[C@@H]1C[C@@H](Oc2cc(-c3ccccc3)nc3cc(OC)ccc23)CN1C(=O)[C@@H](NC(=O)OC(C)(C)C)C(C)(C)C)C(=O)NCC(F)(F)F
S = C=C[C@@H]1C[C@]1(NC(=O)[C@@H]1C[C@@H](Oc2cc(-c3ccccc3)nc3cc(OC)ccc23)CN1C(=O)[C@@H](NC(=O)OC(C)(C)C)C(C)(C)C)C(=O)NC#N
Query block: Falling order of pKi, please. Response field: labels, in requested order.
Result block: Q, S, P, R
